Origin of values: ChEMBL document CHEMBL1150417

# System: SK-BR-3
# procedure-text: Cytotoxicity against human SKBr3 cells after 72 hrs by MTT assay
# Format: functional, cell-based
# measurement-context: SK-BR-3, 72 h
pIC50: −log10 of the molar value.
parameter: pIC50

1) CCN(CC)c1ccc(NC(=O)CSc2ncnc3sc(C)c(C)c23)cc1C :: 4.80
2) CN1CCN(CCCNc2ccnc3cc4ccccc4cc23)CC1 :: 4.82
3) CN1CCN(c2ccc(Nc3ncnc4sc5c(c34)CCCC5)cc2)CC1 :: 5.05
4) COc1ccc2nc(C)cc(Nc3ccc(Oc4ccc5ccccc5c4)c(Cl)c3)c2c1 :: 5.30
5) c1ccc(OCCOc2ccc(Nc3ccnc4cc5ccccc5cc34)cc2)cc1 :: 5.70
6) Fc1ccccc1CCNc1c2c(nc3ncnn13)CCCC2 :: 4.85
7) Brc1ccc2ncnc(NCCc3ccccc3)c2c1 :: 4.82
8) COc1ccc(CCNc2cc(-c3ccccc3)nc3ncnn23)cc1 :: 5.05
9) COc1ccc2nc(C)cc(Nc3ccc(Oc4ccc(Cl)cc4)c(Cl)c3)c2c1 :: 5.30
10) CCc1cc2c(NCCc3ccc(OC)c(OC)c3)ncnc2s1 :: 4.85
11) CCN(CC)CCNc1ccc(Nc2ccnc3cc4ccccc4cc23)cc1 :: 5.70
12) c1ccc(CCNc2ccnc3cc4ccccc4cc23)cc1 :: 5.10

###

Receptor tyrosine-protein kinase erbB-2 (Homo sapiens, UniProt P04626) measurements of pIC50, listed per entry.
Sequence (P04626 whole entry): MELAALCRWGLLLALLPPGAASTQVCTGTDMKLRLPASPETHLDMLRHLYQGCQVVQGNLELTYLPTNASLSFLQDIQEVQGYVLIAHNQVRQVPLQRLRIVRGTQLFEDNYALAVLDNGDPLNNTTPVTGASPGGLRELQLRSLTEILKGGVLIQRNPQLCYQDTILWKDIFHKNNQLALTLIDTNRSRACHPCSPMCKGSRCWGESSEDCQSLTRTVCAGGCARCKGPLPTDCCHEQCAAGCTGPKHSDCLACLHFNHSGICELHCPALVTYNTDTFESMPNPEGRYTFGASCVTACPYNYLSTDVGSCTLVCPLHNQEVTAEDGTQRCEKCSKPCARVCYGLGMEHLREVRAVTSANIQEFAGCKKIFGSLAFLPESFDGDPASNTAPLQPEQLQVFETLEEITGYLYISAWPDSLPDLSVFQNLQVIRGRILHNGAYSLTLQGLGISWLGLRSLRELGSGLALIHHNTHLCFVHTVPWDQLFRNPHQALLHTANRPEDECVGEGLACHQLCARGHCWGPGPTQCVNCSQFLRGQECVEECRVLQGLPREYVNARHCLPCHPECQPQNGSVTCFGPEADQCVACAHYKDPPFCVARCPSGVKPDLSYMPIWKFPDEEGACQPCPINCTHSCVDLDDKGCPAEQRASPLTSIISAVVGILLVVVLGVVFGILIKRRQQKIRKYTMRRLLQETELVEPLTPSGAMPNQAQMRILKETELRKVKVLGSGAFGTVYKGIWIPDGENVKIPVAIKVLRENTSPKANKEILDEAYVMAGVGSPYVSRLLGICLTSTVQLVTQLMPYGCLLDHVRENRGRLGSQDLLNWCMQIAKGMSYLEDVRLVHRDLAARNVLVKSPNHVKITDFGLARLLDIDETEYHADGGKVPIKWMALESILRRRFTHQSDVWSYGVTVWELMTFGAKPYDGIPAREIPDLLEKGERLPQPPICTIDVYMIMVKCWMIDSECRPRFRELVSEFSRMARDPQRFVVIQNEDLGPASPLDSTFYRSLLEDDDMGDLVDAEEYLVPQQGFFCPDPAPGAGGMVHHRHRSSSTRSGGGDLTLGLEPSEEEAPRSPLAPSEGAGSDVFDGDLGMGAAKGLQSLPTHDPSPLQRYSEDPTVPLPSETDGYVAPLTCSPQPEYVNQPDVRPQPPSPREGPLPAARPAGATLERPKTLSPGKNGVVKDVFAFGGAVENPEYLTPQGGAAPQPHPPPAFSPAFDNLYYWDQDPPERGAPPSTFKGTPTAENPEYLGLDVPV
pIC50: −log10 of the molar value.
parameter: pIC50

1. CS(=O)(=O)CCNCc1nc(-c2ccc3ncnc(Nc4ccc(OCc5cccc(F)c5)c(Cl)c4)c3c2)cs1 :: 8.00
2. COc1cc2nccc(Nc3ccc(N4C(=O)c5ccc(Cl)cc5C4=O)c(C)c3)c2cc1OC :: 5.77
3. Nc1ncnc2nc(Sc3cc(Cl)ccc3Cl)[nH]c12 :: 3.92
